- PROTOCOL NOTES: gradient 5% acetonitrile 3 min, to 50% in 2 min, to 85% in 15 min, held 3 min, 100 µL/min
- MEASUREMENT CONTEXT: column: Zorbax Extend-C18 2.1 x 50 mm; eluents: water / acetonitrile, 0.1% formic acid
Readings of RP-LC retention time for the listed compounds

| COMPOUND | RP-LC retention time (s) |
| --- | --- |
| COc1ccc(C(=O)N2CCC3(C2)C(=O)Nc2ccccc23)c(OC)c1 (stereo not given) | 655 |
| O=C1NCCOCCCN(C(=O)Nc2ccccc2)[C@H]2CCCC[C@@H]12 | 672 |
| CN1C(=O)CCc2cc(NC(=O)Cc3ccsc3)ccc21 | 709 |
| COc1nccnc1NC1CCN(C(=O)c2cccnc2)CC1 | 692 |
| Cc1ccc(-c2csc(Cc3nc(-c4cccc(F)c4)no3)n2)cc1C | 1360 |
| CCn1ccc2oc(C)c(C(=O)N3CCN(c4ccc(Cl)cc4)CC3)c2c1=O | 854 |
| Cc1ccccc1CNC(=O)C1CCN(Cc2cn(C)c3ccc(Cl)cc23)CC1 | 740 |
| COc1ccc2nc(SCC(=O)N3CCC(C(N)=O)CC3)nc(C)c2c1 | 626 |
| COc1ccc(NC(=O)N2c3ccccc3CC2c2nc(C3CC3)no2)c(OC)c1 (stereo not given) | 1030 |
| CCOc1ccc2nc(N3CCCC(C(=O)N4CCC(Cc5ccccc5)CC4)C3)sc2c1 (stereo not given) | 1180 |

----------
In this section we review reported RP-LC retention time values for a set of compounds.
- PROTOCOL NOTES: gradient 5% acetonitrile 3 min, to 50% in 2 min, to 85% in 15 min, held 3 min, 100 µL/min
- MEASUREMENT CONTEXT: column: Zorbax Extend-C18 2.1 x 50 mm; eluents: water / acetonitrile, 0.1% formic acid

| COMPOUND | RP-LC retention time |
| --- | --- |
| Cn1cccc1C(=O)N1CCN(C(=O)c2nnn3c2COC(c2ccc(Cl)cc2)C3)CC1 (centres undefined) | 839 s |
| CCOc1ccccc1NC(=O)c1csc2c1CCC(C)C2 (centres undefined) | 1320 s |
| CC1(C)Oc2ccc(C#N)cc2[C@@H](OC2=CC(=O)CC2)[C@@H]1O | 746 s |
| CCNC(=O)N1CC=C(C(=O)Nc2ccc(C)cc2)CC1 | 798 s |
| Cc1ccc(CNC(=O)C2(C)CCCN(C(=O)Nc3ccc(Br)cc3)C2)cc1 (centres undefined) | 1040 s |
| O=C(c1ccc(CS(=O)c2ccc(Br)cc2)o1)N1CCN(c2ccccn2)CC1 (centres undefined) | 580 s |
| Cc1cc(S(=O)(=O)N2CCc3nc(-c4ccc(F)cc4)ncc3C2)ccc1F | 1130 s |
| N#Cc1ccccc1NC(=O)Cc1ccc2c(c1)OCO2 | 710 s |
| Cc1nc(-c2ccncc2)nc2c1CCC(=O)N2CC1CCCCC1 | 918 s |
| CN(CCc1noc(COc2ccc(Cl)cc2)n1)C(=O)Nc1cccc(F)c1 | 984 s |
| O=c1c2sccc2n(Cc2nc(-c3ccc(F)c(Cl)c3)no2)c(=O)n1Cc1ccccc1 | 1210 s |
| CCc1nn2c(CNC(=O)c3ccc(F)c(F)c3)c(-c3ccccc3)nc2s1 | 661 s |
| CCC(CC)NS(=O)(=O)c1cc(-c2[nH]ncc2C(=O)N(C)C)oc1C | 659 s |
| CCOc1ccccc1-c1nc(-c2cn(-c3ccc(F)cc3)nn2)no1 | 1090 s |
| COCc1cc(=O)n2c(n1)N(Cc1ccccc1F)CC2 | 660 s |
| CC1=C(C(=O)OCCC#N)C(c2ccccc2Cl)NC(=O)N1 (centres undefined) | 668 s |
| CCOC(=O)c1oc2ccc(S(=O)(=O)NCC3Cn4cccc4C(=O)N3C)cc2c1C (centres undefined) | 810 s |
| CC(C)CNC(=O)N1CC(c2nc(-c3ccccc3)no2)C2(CCOCC2)C1 (centres undefined) | 858 s |
| Cc1cc(C)c(Cn2cnc3ccccc32)c(C)c1 | 611 s |
| CCN1C(=O)C(C)(C(=O)NCc2ccccc2Cl)Oc2cccnc21 (centres undefined) | 890 s |
| O=C(Nc1ccccc1C(F)(F)F)N1CCC(n2cnnc2C2CC2)C1 (centres undefined) | 640 s |
| COc1ccc(Cl)cc1NC(=O)C(=O)c1cccn1C | 1140 s |
| O=C(Nc1cc(F)ccc1F)C1CCN(c2ccc(=O)n(-c3ccc(F)cc3)n2)CC1 | 874 s |
| CC(C)Cc1ccc(C(C)C(=O)N2CC(=O)Nc3ccccc32)cc1 (centres undefined) | 968 s |
| c1ccc(COCCc2noc(C3CN(Cc4ccccc4)C3)n2)cc1 | 693 s |
| CCCNS(=O)(=O)c1ccc(-c2cc(C(F)(F)F)on2)o1 | 1010 s |
| CCn1c(N2CCC(C(=O)NCCCOC)CC2)cc(=O)n(C)c1=O | 610 s |
| O=C(C1CCCN(c2ccc(-c3ccccc3)nn2)C1)N1CCN(c2ccccc2F)CC1 (centres undefined) | 788 s |
| COCCCNC(=O)c1ccc(-c2nc(CN3CCc4ccccc43)c(C)o2)cc1 | 951 s |
| CNC(C)Cc1ccccc1OC (centres undefined) | 646 s |
| CS(=O)(=O)Nc1ccc(-c2noc(CNC(=O)Cc3ccccc3)n2)cc1 | 722 s |
| Cc1cc(C)n2c(Nc3ccccc3C)c(-c3ccc(O)cc3)nc2n1 | 907 s |
| O=C(O)c1ccc(Nc2ncc3c(n2)-c2ccc(Cl)cc2C(c2c(F)cccc2F)=NC3)cc1 | 947 s |
| Cc1ccc(C)c(CNc2nc3ccncc3n(Cc3ccccc3)c2=O)c1 | 798 s |
| Cc1ccc(C)c(NS(=O)(=O)c2cc(-c3[nH]ncc3C(=O)N3CCOCC3)oc2C)c1 | 701 s |
| CCN(CC)C(=O)c1ccc(-c2nc3cc(NS(=O)(=O)c4ccc(F)cc4F)ccc3n2C)cc1 | 710 s |
| CC(C)N1CCC(CC(=O)N2CCc3c(c(-c4nc(-c5ccccc5)no4)nn3C)C2)CC1 | 654 s |
| CC(C)c1noc(C2CCCCN2Cc2cc(F)cc(F)c2)n1 (centres undefined) | 1170 s |
| COc1cccc(-c2nc(C3CCN(S(=O)(=O)c4ccc(C(C)C)cc4)CC3)no2)c1 | 1300 s |
